target: c-Ret on NB41A3-mRL3 cells (UniProt P35546 29-1115, limits assumed); test: cell-based or functional assay
Sequence (P35546 29-1115 limits assumed): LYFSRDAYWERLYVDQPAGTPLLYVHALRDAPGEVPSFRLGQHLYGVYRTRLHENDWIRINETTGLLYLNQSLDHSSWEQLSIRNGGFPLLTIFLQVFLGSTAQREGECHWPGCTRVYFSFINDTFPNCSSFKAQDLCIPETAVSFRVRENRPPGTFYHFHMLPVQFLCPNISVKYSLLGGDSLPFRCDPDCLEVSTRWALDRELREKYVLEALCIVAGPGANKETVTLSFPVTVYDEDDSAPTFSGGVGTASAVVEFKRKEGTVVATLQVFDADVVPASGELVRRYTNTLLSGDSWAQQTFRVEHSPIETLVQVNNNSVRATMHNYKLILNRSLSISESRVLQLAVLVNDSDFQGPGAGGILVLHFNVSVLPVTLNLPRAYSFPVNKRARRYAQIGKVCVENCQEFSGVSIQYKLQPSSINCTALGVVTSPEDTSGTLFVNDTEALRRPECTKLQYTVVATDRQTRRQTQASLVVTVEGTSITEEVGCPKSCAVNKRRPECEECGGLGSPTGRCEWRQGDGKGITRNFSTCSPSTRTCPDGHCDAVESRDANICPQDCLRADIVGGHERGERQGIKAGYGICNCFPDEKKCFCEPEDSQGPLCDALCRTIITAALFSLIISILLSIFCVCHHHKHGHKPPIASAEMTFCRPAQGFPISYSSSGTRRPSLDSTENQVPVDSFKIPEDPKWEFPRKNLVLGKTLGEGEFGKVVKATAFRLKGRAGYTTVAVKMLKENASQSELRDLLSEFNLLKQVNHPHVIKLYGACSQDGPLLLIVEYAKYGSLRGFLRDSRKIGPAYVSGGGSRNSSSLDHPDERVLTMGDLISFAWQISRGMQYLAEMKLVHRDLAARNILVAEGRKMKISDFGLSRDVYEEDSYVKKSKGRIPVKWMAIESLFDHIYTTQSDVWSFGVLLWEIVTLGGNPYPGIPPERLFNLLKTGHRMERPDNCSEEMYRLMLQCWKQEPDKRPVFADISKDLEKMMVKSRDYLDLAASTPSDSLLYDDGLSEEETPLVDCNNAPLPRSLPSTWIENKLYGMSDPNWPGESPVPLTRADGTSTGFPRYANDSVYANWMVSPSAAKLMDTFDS
Exercise: for every item that follows, state its recorded KIRA: ∼EC50.

Prompt: State the recorded KIRA: ∼EC50 for this entry: 3 X 10 kDa PEG NBN106-N95K (ligand, three 10 kDa PEG per dimer: on both amino-terminal amino acids and on one Lys95 (PEGylated amino acids 1,1,95)) ARATDARGCRLRSQLVPVSALGLGHSSDELIRFRFCSGSCRRARSPHDLSLASLLGAGALRSPPGSRPISQPCCRPTRYEAVSFMDVKSTWRTVDHLSATACGCLG
Response: ~0.8 nM

Prompt: Same for 2 X 20 kDa PEG-NBN (ligand, 20 kDa PEG on amino acid 1 of each chain (cell printed '1,1 1')) AGTRSSRARATDARGCRLRSQLVPVSALGLGHSSDELIRFRFCSGSCRRARSPHDLSLASLLGAGALRSPPGSRPISQPCCRPTRYEAVSFMDVNSTWRTVDHLSATACGCLG
Response: ~0.6 nM
